Data provenance: paper PMC5603512

# assay-name: Cytotoxicity SRB assay, A-549
# measurement-parameters: human, A-549 lung carcinoma cells
experimental-readout: IC50 at 72 h

Recorded IC50 at 72 h, per entry:
# compound, IC50 at 72 h
measured = [
    ("COc1cc(O)c2c(c1)/C=C/C[C@H](O)[C@@H](O)C(=O)/C=C/C[C@H](C)OC2=O", "> 10 µM"),
    ("COc1cccc2c1C(=O)c1c(O)c3c(c(O)c1C2=O)C[C@@](O)(C(=O)CO)C[C@@H]3O[C@H]1C[C@H](N)[C@H](O)[C@H](C)O1 [Adriamycin, reference compound]", "0.16 µM"),
]

What measured IC50 at 72 h goes with `COc1cc(O)c2c(c1)/C=C/C[C@H](O)[C@H](O)C(=O)/C=C\C[C@H](C)OC2=O` ? > 10 µM

* * *

# assay-name: Cytotoxicity SRB assay, HCT-116
# measurement-parameters: human, HCT-116 colon carcinoma cells
experimental-readout: IC50 at 72 h

Recorded IC50 at 72 h, per entry:
# compound-smiles, IC50 at 72 h
rows = [
    ("COc1cc2c(c(OC(C)=O)c1)C(=O)O[C@@H](C)C/C=C/C(=O)[C@@H](OC(C)=O)[C@@H](OC(C)=O)C/C=C/2", "> 10 µM"),
    ("COc1cc(O)c2c(c1)/C=C/C[C@H](OC(C)=O)[C@H](OC(C)=O)C(=O)/C=C\\C[C@H](C)OC2=O", "2.83 µM"),
    ("COc1cc(O)c2c(c1)/C=C/C[C@H](O)[C@@H]1OC(C)(C)O[C@H]1/C=C/C[C@H](C)OC2=O", "> 10 µM"),
]

Now look at this one.
What measured IC50 at 72 h goes with `COc1cc(O)c2c(c1)/C=C/C[C@H](O)[C@H](O)C(=O)/C=C/C[C@H](C)OC2=O` ? > 10 µM

* * *

# assay-name: Cytotoxicity SRB assay, HeLa
# measurement-parameters: human, HeLa cervical epithelium cells
# Procedure: All of the compounds were also evaluated for their cytotoxic properties against six human cancer cell lines (lung carcinoma epithelian (A549), colon carcinoma (HCT-116), pancreatic carcinoma (BXPC-3), breast cancer (MCF-7), cervical epithelium (HeLa), and erythroleukemic (K562)) and a human umbilical vein endothelial cell (HUVEC) line (Table 2). The cytotoxicity against HCT-116, BXPC-3, HeLa, MCF-7, A-549, and HUVEC cell lines was evaluated using the SRB method. […]
experimental-readout: IC50 at 72 h

Recorded IC50 at 72 h, per entry:
# compound-smiles, experimental-value
data = [
    ("COc1cc(O)c2c(c1Cl)/C=C/C[C@H](O)[C@H](O)[C@@H](O)/C=C/C[C@H](C)OC2=O", "> 10 µM"),
    ("COc1cc2c(c(OC(C)=O)c1)C(=O)O[C@@H](C)C/C=C/C(=O)[C@@H](OC(C)=O)[C@H](OC(C)=O)C/C=C/2", "> 10 µM"),
    ("COc1cc2c(c(OC(C)=O)c1)C(=O)O[C@@H](C)C/C=C/C(=O)[C@@H](OC(C)=O)[C@@H](OC(C)=O)C/C=C/2", "6.95 µM"),
]

Fill in IC50 at 72 h for each of the 3 compounds listed.
1. COc1cc(O)c2c(c1)/C=C/C[C@@H](O)[C@@H](O)C(=O)/C=C/C[C@H](C)OC2=O
2. COc1cc(O)c2c(c1)/C=C/C[C@H](OC(C)=O)[C@H](OC(C)=O)C(=O)/C=C\C[C@H](C)OC2=O
3. COc1cc2c(c(OC(C)=O)c1)C(=O)O[C@@H](C)C/C=C/[C@H](OC(C)=O)[C@@H](OC(C)=O)[C@@H](OC(C)=O)C/C=C/2

1. > 10 µM
2. 3.85 µM
3. > 10 µM
